Biological target: T1, TRAF2, Q12933
T1 chain: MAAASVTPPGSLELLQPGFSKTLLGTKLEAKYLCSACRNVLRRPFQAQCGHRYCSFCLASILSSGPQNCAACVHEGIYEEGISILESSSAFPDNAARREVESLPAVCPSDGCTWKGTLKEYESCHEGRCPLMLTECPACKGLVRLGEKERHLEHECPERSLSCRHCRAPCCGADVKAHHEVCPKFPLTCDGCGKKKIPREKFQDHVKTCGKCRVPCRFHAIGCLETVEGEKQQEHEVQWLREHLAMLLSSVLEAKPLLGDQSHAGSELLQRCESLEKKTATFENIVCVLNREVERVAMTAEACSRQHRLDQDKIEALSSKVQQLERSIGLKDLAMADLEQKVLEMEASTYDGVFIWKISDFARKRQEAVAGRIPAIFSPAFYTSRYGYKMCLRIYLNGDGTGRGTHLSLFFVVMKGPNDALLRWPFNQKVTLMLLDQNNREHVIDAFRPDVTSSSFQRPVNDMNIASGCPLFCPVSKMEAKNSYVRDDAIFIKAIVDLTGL
Assay: median log2 fold change of GCK-ALFA target abundance (FLAG IP / Myc IP barcode read proportion) (log2 ratio); each designed protein is fused to an ALFA-tag nanobody in HEK293 cells to bring the named protein to FLAG-tagged glucokinase (GCK); Myc marks an untargeted standard; higher = target protein stabilised (more abundant)
Conditions: target protein: 3xFLAG-MCP-GCK-ALFA reporter; HEK293 landing pad (RPLP)
In all, about 1,800 sequences were measured (“median log2 fold change of GCK-ALFA target abundance (FLAG IP / Myc IP barcode read proportion)”: median about 0.14, lowest 2% from about -0.84 on). This is one part of a sample in which the lowest values are shown more often than they occur.
Classification by median log2 fold change follows these ranges: lo: < -0.06; mid: ≥ -0.06 and < 0.2; hi: ≥ 0.2

• traf2_out_6_3_2523 (protein) SEESLREDARRVLEGMGITTAEQLRRLVRAEVNAVRRLVSRPDTDEADLAGAESVLALAEAVVDVAAEELPDLTEEQVAELRALIEEARKLVEEKRAELA = lo

Could you place traf2_out_18_64_1955 (protein) SELDEEIDRLVDEMDERRRLRLALARALQARAAADPAWQPLLDYFHAHVNDIGAAGARRMLALLAAGAPPAELRAVMEEDLGEGRELQRRLAELLEKREK in its proper category? Many thanks.
mid

Quick check: band for traf2_out_18_167_1826 (protein) SEEAEKKINELRDKLIEYSEIRRLALAAIEALRTDPAAAEAALAAVIAALEKVPEFRPDAERLKALPREELPAALEEIAERAQRKMNEIYKEIEEIKKKA
mid

Which class holds traf2_out_17_162_1507 (protein) SPLEELRRRIEEELEELRRELERLEKKMENLKSMSKEELSDLLVEASEAKARALRLAELVREHREELGEEEAERLIREAEEIAERLQRIANEAYKELLKK ?
hi

Entry traf2_out_8_174_2574 (protein) SERERLRIVSEVLTEFADILDEAEERLEALKDLPLEELRKESQKILDEALKRIDEIEERRVKEVDEETAELIRRAARSAKQQLRNMVEGTIKRKELREKA belongs to which category?
lo

Entry traf2_out_20_38_2033 (protein) SEEEEEKRRLEEAIEVANEAYDKYSARVAAWKAAGKTVEEIAEEAKEEVRRLLTEAGLEEEAEILIEDIDRALSSPEAERLIVRILARAEALVYQKKVNE belongs to which category?
lo
